# System: 184-B5/HER cells
# PROTOCOL DETAILS: preclinical cell culture model for human ductal breast carcinoma in situ
# Format: cell-based
# EXPERIMENTAL CONDITIONS: Homo sapiens, 184B5, read-out: concentration that inhibited growth by 50% (IC50)
ENDPOINT NAME: IC50 (nM)
Lab book: enter the figure in nM, no units written.

# IC50 of `COc1ccc(C=Cc2cc(OC)c(OC)c(OC)c2)cc1` = 1000
